FYI, the data here is from ChEMBL document CHEMBL3046284.

Test system: Aphis craccivora
Experiment: Insecticidal activity against Aphis craccivora (cowpea aphid) assessed as mortality measured after 24 hr
Format: functional
Threshold 100 µM. LC50 below it: Condition met. LC50 at it or above: Condition not met.

>>> class_label("O=[N+]([O-])/N=C1\\NCCN1Cc1ccc(Cl)nc1")
"Condition met"
>>> class_label("CCOC1CC(C)C([N+](=O)[O-])=C2N(Cc3ccc(Cl)nc3)CCN21 (stereo not given)")
"Condition not met"
>>> class_label("CCOC1CCC([N+](=O)[O-])=C2N(Cc3ccc(Cl)nc3)CCN21 (stereo not given)")
"Condition met"

Q: Does the reported LC50 of the following molecule sit strictly below 100 µM? COC1CCC([N+](=O)[O-])=C2N(Cc3ccc(Cl)nc3)CCN21 (stereo not given)
A: Condition not met

Q: Lab log: compare recorded LC50 with 100 µM; is it strictly lower for O=[N+]([O-])C1=C2N(Cc3ccc(Cl)nc3)CCN2C(OCc2ccccc2)CC1 (stereo not given) ?
A: Condition not met
